Tested on: E. coli TESEC Mtb Alr
test summary: growth (OD600 after 10 h); higher = more growth (less inhibition)
stated conditions: arabinose 10000 nM; compound 0.1 mM; raw OD600 reference: median of DMSO wells 0.264, cell-free background 0.041
Structures can show the parent of a compound that is named as a salt.
growth vs 0.2: at or above is class 1, below is class 0.

>>> label_class("NS(=O)(=O)c1cc(C(=O)O)cc(N2CCCC2)c1Oc1ccccc1 [Piretanide]")
"class 1"
>>> label_class("CCCc1cc(C(N)=S)ccn1 [Prothionamide]")
"class 1"
>>> label_class("C=C1C[C@H]2[C@@H]3C=C(C)C4=CC(=O)CC[C@]4(C)[C@H]3CC[C@]2(C)[C@@]1(OC(C)=O)C(C)=O [Melengestrol acetate]")
"class 1"
>>> label_class("Cc1scc2c1N(C(=O)CN1CCN(C)CC1)c1ccccc1NC2=O [Telenzepine dihydrochloride]")
"class 1"
>>> label_class("CCN[C@H]1CN(CCCOC)S(=O)(=O)c2sc(S(N)(=O)=O)cc21 [Brinzolamide]")
"class 1"
>>> label_class("O=C(O)Cc1cc(I)c(Oc2ccc(O)c(I)c2)c(I)c1 [Tiratricol, 3,3',5-triiodothyroacetic acid]")
"class 0"
>>> label_class("OCCN1CCN(CCCN2c3ccccc3C=Cc3ccccc32)CC1 [Opipramol dihydrochloride]")
"class 1"
>>> label_class("CCCCCNC(=N)N/N=C/c1c[nH]c2ccc(OC)cc12 [Tegaserod maleate]")
"class 0"
>>> label_class("CCS(=O)(=O)CCn1c([N+](=O)[O-])cnc1C [Tinidazole]")
"class 1"
>>> label_class("CC(C(=O)O)c1ccc2c(c1)Cc1cccnc1O2 (stereo not given) [Pranoprofen]")
"class 1"

====

System: E. coli TESEC Alr+ wild-type control
test summary: growth (OD600 after 10 h); higher = more growth (less inhibition)
stated conditions: compound 0.1 mM; raw OD600 reference: median of DMSO wells 0.241, cell-free background 0.041
Structures can show the parent of a compound that is named as a salt.
Measured growth by item
quantity: growth

>>> experimental_value("CCC[C@H](N[C@@H](C)C(=O)N1[C@H](C(=O)O)C[C@@H]2CCCC[C@@H]21)C(=O)OCC")
0.252
>>> experimental_value("COc1ccc2cc([C@H](C)C(=O)O)ccc2c1")
0.26
>>> experimental_value("OC(CCCN1CCCCC1)(c1ccccc1)c1ccccc1 [Diphenidol hydrochloride]")
0.227
>>> experimental_value("CNS(=O)(=O)Cc1ccc2[nH]cc(CCN(C)C)c2c1 [Sumatriptan succinate]")
0.226

====

System: E. coli TESEC Mtb Alr
test summary: growth (OD600 after 10 h); higher = more growth (less inhibition)
stated conditions: arabinose 100000 nM; compound 0.1 mM; raw OD600 reference: median of DMSO wells 0.201, cell-free background 0.041
Counter-ions that a name gives are not always drawn.
quantity: growth

>>> experimental_value("O=C1Nc2ccc(Cl)cc2[C@@](C#CC2CC2)(C(F)(F)F)O1")
0.0412
>>> experimental_value("CN1CCc2cccc3c2[C@H]1Cc1ccc(O)c(O)c1-3 [R(-) Apomorphine hydrochloride hemihydrate]")
0.181
>>> experimental_value("CCCCC1C(=O)N(c2ccccc2)N(c2ccc(O)cc2)C1=O (stereo not given)")
0.211
>>> experimental_value("CCC(C)(CN(C)C)OC(=O)c1ccccc1 (stereo not given) [Amyleine hydrochloride]")
0.183
>>> experimental_value("CCC(Cc1c(I)cc(I)c(N)c1I)C(=O)O (stereo not given)")
0.097

====

Test system: E. coli TESEC Mtb DapB
test summary: growth (OD600 after 10 h); higher = more growth (less inhibition)
stated conditions: arabinose induction (level): Low; compound 0.1 mM; raw OD600 reference: median of DMSO wells 0.227, cell-free background 0.041
Structures can show the parent of a compound that is named as a salt.
quantity: growth

>>> experimental_value("CN(C)CCC=C1c2ccccc2C=Cc2ccccc21 [Cyclobenzaprine hydrochloride]")
0.203
>>> experimental_value("CCCCc1nc(Cl)c(CO)n1Cc1ccc(-c2ccccc2-c2nnn[nH]2)cc1")
0.228
>>> experimental_value("COC(=O)Nc1nc2cc(C(=O)c3ccccc3)ccc2[nH]1")
0.273
>>> experimental_value("O=C(O)Cc1ccc(-c2ccccc2)cc1")
0.206
>>> experimental_value("CN1CCCN(C(c2ccccc2)c2ccc(Cl)cc2)CC1 (stereo not given) [Homochlorcyclizine dihydrochloride]")
0.215

====

Tested on: E. coli TESEC Alr+ wild-type control
test summary: growth (OD600 after 10 h); higher = more growth (less inhibition)
stated conditions: compound 0.1 mM; raw OD600 reference: median of DMSO wells 0.49, cell-free background 0.052
Counter-ions that a name gives are not always drawn.
quantity: growth

>>> experimental_value("CCN1CCN(c2cc3c(cc2F)c(=O)c(C(=O)O)cn3C2CC2)CC1")
0.0543
>>> experimental_value("C[C@]12CC[C@@H]3c4ccc(OS(=O)(=O)O)cc4CC[C@H]3[C@@H]1CCC2=O [Estropipate]")
0.534
>>> experimental_value("N=C(N)NC(=O)Cc1c(Cl)cccc1Cl [Guanfacine hydrochloride]")
0.485
>>> experimental_value("CCN(CC)CCNc1ccc(CO)c2sc3ccccc3c(=O)c12")
0.377
>>> experimental_value("Cc1c(C)c2c(c(C)c1O)CCC(C)(COc1ccc(CC3SC(=O)NC3=O)cc1)O2 (centres undefined)")
0.445
>>> experimental_value("CC(C)NCC(O)c1ccc(NS(C)(=O)=O)cc1 (centres undefined) [Sotalol hydrochloride]")
0.433
>>> experimental_value("CCN(CC)C(=O)/C(C#N)=C/c1cc(O)c(O)c([N+](=O)[O-])c1")
0.144
>>> experimental_value("CCC(=O)[C@@]1(C)[C@H](C)C[C@H]2[C@@H]3CCC4=CC(=O)C=C[C@]4(C)[C@H]3[C@@H](O)C[C@@]21C [Rimexolone]")
0.459
>>> experimental_value("Cc1cc(N)c2ccccc2[n+]1CCCCCCCCCC[n+]1c(C)cc(N)c2ccccc21 [Dequalinium dichloride]")
0.0513

====

Measured growth by item
System: E. coli TESEC Mtb Alr
test summary: growth (OD600 after 10 h); higher = more growth (less inhibition)
stated conditions: arabinose 100 nM; compound 0.1 mM; raw OD600 reference: median of DMSO wells 0.413, cell-free background 0.052
Structures can show the parent of a compound that is named as a salt.
quantity: growth

>>> experimental_value("C[C@H]1O[C@@H](O[C@H]2[C@@H](O)C[C@H](O[C@H]3[C@@H](O)C[C@H](O[C@H]4CC[C@@]5(C)[C@H](CC[C@@H]6[C@@H]5C[C@@H](O)[C@]5(C)[C@@H](C7=CC(=O)OC7)CC[C@]65O)C4)O[C@@H]3C)O[C@@H]2C)C[C@H](O)[C@@H]1O [Digoxin]")
0.414
>>> experimental_value("CCn1cc(C(=O)O)c(=O)c2cnc(N3CCNCC3)nc21 [Pipemidic acid]")
0.156
>>> experimental_value("CC[C@H]1OC(=O)[C@H](C)[C@@H](O[C@H]2C[C@@](C)(OC)[C@@H](O)[C@H](C)O2)[C@H](C)[C@@H](O[C@@H]2O[C@H](C)C[C@H](N(C)C)[C@H]2O)[C@](C)(OC)C[C@@H](C)C(=O)[C@H](C)[C@@H](O)[C@]1(C)O [Clarithromycin]")
0.0576
>>> experimental_value("OC(CCN1CCCCC1)(c1ccccc1)c1ccccc1 [Pridinol methanesulfonate salt]")
0.397
>>> experimental_value("Cc1onc(-c2ccccc2)c1-c1ccc(S(N)(=O)=O)cc1 [Valdecoxib]")
0.401
>>> experimental_value("CCCCC1C(=O)N(c2ccccc2)N(c2ccc(O)cc2)C1=O (centres undefined) [Oxyphenbutazone]")
0.415
>>> experimental_value("CN(C/C=C/c1ccccc1)Cc1cccc2ccccc12 [Naftifine hydrochloride]")
0.266
>>> experimental_value("COc1ccc(C(=O)CC(=O)c2ccc(C(C)(C)C)cc2)cc1 [Avobenzone]")
0.247
>>> experimental_value("NC(=O)OCC(COC(N)=O)c1ccccc1 [Felbamate]")
0.405
>>> experimental_value("CCN(CC)CCCC(C)Nc1c2ccc(Cl)cc2nc2ccc(OC)cc12 (centres undefined) [Quinacrine dihydrochloride hydrate]")
0.421
>>> experimental_value("CNCC[C@@H](Oc1ccccc1C)c1ccccc1 [Tomoxetine hydrochloride]")
0.407
>>> experimental_value("Cc1c(Cl)cccc1Nc1ccccc1C(=O)O [Tolfenamic acid]")
0.0964
>>> experimental_value("c1ccc([C@H]2CN3CCSC3=N2)cc1 [Levamisole hydrochloride]")
0.413
>>> experimental_value("CC(C)(C)C(=O)OCOC(=O)[C@@H]1N2C(=O)[C@@H](/N=C/N3CCCCCC3)[C@H]2SC1(C)C [Pivmecillinam hydrochloride]")
0.42
>>> experimental_value("CN1CCOC(c2ccccc2)c2ccccc2C1 (centres undefined) [Nefopam hydrochloride]")
0.413
>>> experimental_value("CN(C)CCOC(c1ccccc1)c1ccccc1 [Diphenhydramine hydrochloride]")
0.408
>>> experimental_value("CN(C)CCn1nnnc1SCC1=C(C(=O)O)N2C(=O)[C@@H](NC(=O)Cc3csc(N)n3)[C@H]2SC1 [Cefotiam hydrochloride]")
0.0473
>>> experimental_value("CC(=O)c1ccc2c(c1)N(CCCN1CCC(CCO)CC1)c1ccccc1S2 [Piperacetazine]")
0.398
>>> experimental_value("Nc1nc(N)c2nc(-c3ccccc3)c(N)nc2n1 [Triamterene]")
0.416
>>> experimental_value("CCN(CC)Cc1cc(Nc2ccnc3cc(Cl)ccc23)ccc1O [Amodiaquin dihydrochloride dihydrate]")
0.413
>>> experimental_value("NC1CCN(c2c(F)cc3c(=O)c(C(=O)O)cn(C4CC4)c3c2Cl)C1 (centres undefined) [Clinafloxacin]")
0.0535
>>> experimental_value("Nc1c2c(nc3ccccc13)CCCC2 [Tacrine hydrochloride]")
0.41
>>> experimental_value("CCCCOc1ccc(CC(=O)NO)cc1 [Bufexamac]")
0.4
>>> experimental_value("CC(C)[N+](C)(CCOC(=O)C1c2ccccc2Oc2ccccc21)C(C)C [Propantheline bromide]")
0.406
>>> experimental_value("CO[C@H]1/C=C/O[C@@]2(C)Oc3c(C)c(O)c4c(O)c(c5c(nc6cc(C)ccn65)c4c3C2=O)NC(=O)/C(C)=C\\C=C\\[C@H](C)[C@H](O)[C@@H](C)[C@@H](O)[C@@H](C)[C@H](OC(C)=O)[C@@H]1C [Rifaximin]")
0.0553
>>> experimental_value("CC(=O)SCC(Cc1ccccc1)C(=O)NCC(=O)OCc1ccccc1 (centres undefined) [Racecadotril]")
0.398
>>> experimental_value("CN(C)CCCSC(=N)N [Dimaprit dihydrochloride]")
0.406
>>> experimental_value("OC(CCN1CCCCC1)(c1ccccc1)C1CCCCC1 (centres undefined) [Trihexyphenidyl-D,L Hydrochloride]")
0.413
>>> experimental_value("C[C@@](Cc1ccc(O)c(O)c1)(NN)C(=O)O [Carbidopa]")
0.375
